Data origin, for the record: paper PMC6342991

Target: MUP20E137K (Mus musculus, UniProt Q5FW60, E137K)
Construct: 6xHis (N); made in house; host or cells: E. coli BL21(DE3), pET5b
Assay: Fluorescence competitive binding assay with 1-NPN, MUP20 E137K
Conditions: 1-NPN displacement, 50 mM Tris-HCl pH 7.4, 25 °C; read-out: Measured Kd, E137K
measurement-kind: Kd (nM)

Examples with answers:
compound	Kd [nM]
CC1=CC(=O)c2ccccc2C1=O	2140
C=CC(C)(O)CCC=C(C)C (stereo not shown)	1850

(a) COc1nccnc1CC(C)C
(b) CCCCCCC(CO)CCCC (stereo not shown)
[in] Looking only at measured Kd, which entry is lower, a or b ? Which one? Tell me its label.
[out] a
(a: 1520 nM, b: 3200 nM)

----------
Target: MUP20Y103R (Mus musculus, UniProt Q5FW60, Y103R)
Construct: 6xHis (N); made in house; host or cells: E. coli BL21(DE3), pET5b
Assay: Fluorescence competitive binding assay with 1-NPN, MUP20 Y103R
Method: Fluorescence competitive binding assays: Fluorescence-competitive binding assays were carried out using the fluorescent probe N-phenyl-1-naphthylamine (1-NPN), as described[39],[40]. A binding curve was constructed and the dissociation constant of the probe (KD) was calculated. The binding analyses assumed that the protein had 100% activity and that the stoichiometry of binding was 1:1 at saturation. The affinity of various volatile ligands was measured in competitive binding assays. […]
measurement-kind: Kd (µM)
State just the number; it will be interpreted in µM.

[in] Find the measured Kd: item Cc1ccc(O)c(C)c1 [2,4-DMP, 2,4-dimethylphenol] , target or system MUP20Y103R (Mus musculus, UniProt Q5FW60, Y103R).
[out] 11.9

----------
Target: MUP20Y103R (Mus musculus, UniProt Q5FW60, Y103R)
Construct: 6xHis (N); made in house; host or cells: E. coli BL21(DE3), pET5b
Assay: Fluorescence competitive binding assay with 1-NPN, MUP20 Y103R
Settings: 1-NPN displacement, 50 mM Tris-HCl pH 7.4, 25 °C; read-out: Measured Kd, Y103R
measurement-kind: Kd (nM)

molecule	recorded-measurement
CCCCCCC(CO)CCCC (stereo not drawn)	1880

(1) COc1nccnc1CC(C)C
(2) C=CC(C)(O)CCC=C(C)C (stereo not drawn)
[in] Lower value of Kd belongs to which: 1 or 2 ? Choose, then provide that item's label.
[out] 1

----------
Target: MUP20E137K (Mus musculus, UniProt Q5FW60, E137K)
Construct: 6xHis (N); made in house; host or cells: E. coli BL21(DE3), pET5b
Test: Fluorescence competitive binding assay with 1-NPN, MUP20 E137K
measurement-kind: Kd (µM)
Reply with just the number (in µM).

[in] Give Kd (MUP20E137K (Mus musculus, UniProt Q5FW60, E137K)) of the following molecule: Cc1ccc(O)c(C)c1 [2,4-DMP, 2,4-dimethylphenol]
[out] 4.05

----------
Target: MUP20Y103D (Mus musculus, UniProt Q5FW60, Y103D)
Construct: 6xHis (N); made in house; host or cells: E. coli BL21(DE3), pET5b
Test: Fluorescence competitive binding assay with 1-NPN, MUP20 Y103D
Conditions: 1-NPN displacement, 50 mM Tris-HCl pH 7.4, 25 °C; read-out: Measured Kd, Y103D
measurement-kind: Kd (nM)

compound	recorded-measurement
COc1nccnc1CC(C)C	840

(I) C=CC(C)(O)CCC=C(C)C (stereo not drawn)
(II) CCCCCCC(CO)CCCC (stereo not drawn)
[in] Hi there, can you help? I need to know whether I or II has lower measured Kd. The response must carry the label of the picked entry.
[out] II
(II: 920 nM, I: 2170 nM)

----------
Target: MUP20L124V (Mus musculus, UniProt Q5FW60, L124V)
Construct: 6xHis (N); made in house; host or cells: E. coli BL21(DE3), pET5b
Experiment: Fluorescence competitive binding assay with 1-NPN, MUP20 L124V
Details: 1-NPN displacement, 50 mM Tris-HCl pH 7.4, 25 °C; read-out: Measured Kd, L124V
measurement-kind: Kd (nM)

compound	measurement-kind	output-unit	recorded-measurement
C=CC(C)(O)CCC=C(C)C (stereo not drawn)	Kd	nM	290

(a) CCCCCCC(CO)CCCC (stereo not drawn)
(b) COc1nccnc1CC(C)C
[in] Which has the higher Kd, a or b ? Your answer should be the label attached to the chosen record.
[out] a

----------
Molecular target: wild type MUP20 (Mus musculus, UniProt Q5FW60)
Construct: 6xHis (N); made in house; host or cells: E. coli BL21(DE3), pET5b
Sequence (Q5FW60 20-181): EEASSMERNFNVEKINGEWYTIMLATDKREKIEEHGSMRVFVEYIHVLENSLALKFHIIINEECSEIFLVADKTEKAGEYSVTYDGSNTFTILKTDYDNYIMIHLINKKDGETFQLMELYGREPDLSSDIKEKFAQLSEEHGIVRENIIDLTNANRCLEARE
Assay: Isothermal titration calorimetry, wild type MUP20
Format: binding
Settings: one-site binding model, 25 °C, 50 mM Tris HCl pH 7.4; read-out: Equilibrium dissociation constant Kd (ITC), WT
pKd: −log10 of the molar value.
measurement-kind: pKd

(A) COc1nccnc1CC(C)C
(B) CC1=CC(=O)c2ccccc2C1=O
[in] Between the entries labeled A and B , whose measured pKd is lower? Your answer should be the label of the entry you select.
[out] B
(B: 4.12, A: 5.80)
